Cited source: the RNAGym collection of RNA variant scans (doi:10.1126/science.aae0568)

B1: tRNA (parent)
chain: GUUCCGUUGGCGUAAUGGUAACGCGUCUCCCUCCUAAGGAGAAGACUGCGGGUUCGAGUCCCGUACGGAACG

variants of: B1; experiment: yeast fitness relative to wild type (ratio to wild type); higher = fitter; tRNA-Arg(CCU), competitive growth, 37 C, YPD
Variants at the floor of the assay were thinned out.
Binary call on yeast fitness: yes (1) from 0.6 upward, no (0) beneath that.

MUTATION_ANNOTATION: C29U C55G G68C
CLASS_LABEL: no (0)
--
MUTATION_ANNOTATION: A20G C27A A40G C46G C62G
CLASS_LABEL: no (0)
--
MUTATION_ANNOTATION: C5U G44A C55U
CLASS_LABEL: yes (1)
--
MUTATION_ANNOTATION: U2G G48C C66U
CLASS_LABEL: no (0)
--
MUTATION_ANNOTATION: C49U U59G C60U
CLASS_LABEL: no (0)
--
MUTATION_ANNOTATION: U8A G18C C27U U32C C66G A70U
CLASS_LABEL: no (0)
--
MUTATION_ANNOTATION: C4G U35C C49U
CLASS_LABEL: no (0)
--
MUTATION_ANNOTATION: C22G C29A A37U C49A
CLASS_LABEL: no (0)
--
MUTATION_ANNOTATION: A15G U19C
CLASS_LABEL: yes (1)
--
MUTATION_ANNOTATION: U54C C66G
CLASS_LABEL: yes (1)
--
MUTATION_ANNOTATION: C30G A37C C46G
CLASS_LABEL: no (0)
--
MUTATION_ANNOTATION: C27A A43C C66U
CLASS_LABEL: yes (1)
--
MUTATION_ANNOTATION: C22G A36G C46U
CLASS_LABEL: yes (1)
--
MUTATION_ANNOTATION: A15G G48C G51A A65C
CLASS_LABEL: no (0)
--
MUTATION_ANNOTATION: C33G G41A G50A
CLASS_LABEL: yes (1)
--
MUTATION_ANNOTATION: A21C A40G
CLASS_LABEL: yes (1)
--
MUTATION_ANNOTATION: G58A G67A
CLASS_LABEL: yes (1)
--
MUTATION_ANNOTATION: C5G C30G G67A A70U
CLASS_LABEL: no (0)
--
MUTATION_ANNOTATION: U8A A14C C49G A70U
CLASS_LABEL: no (0)
--
MUTATION_ANNOTATION: C11G G17C U35C C49U C66U
CLASS_LABEL: no (0)
--
MUTATION_ANNOTATION: U3G U8C C24A C30U
CLASS_LABEL: no (0)
--
MUTATION_ANNOTATION: A36C U53A
CLASS_LABEL: yes (1)
